# Test system: HAP1 MTAP-deleted cell line
# PROTOCOL DESCRIPTION: Viability assay, HAP1 MTAP-deleted cell line
# Type: cell-based
# EXPERIMENTAL CONTEXT: Homo sapiens; viability assay, HAP1 MTAP-deleted cell line; read-out: Hap1 MTAP deleted viability IC50
pIC50: −log10 of the molar value.
ASSAY READOUT: pIC50

Solved entries (count: 8):
>  <COMPOUND>
Nc1ncc(NC(=O)C(=O)N(Cc2ccc(C(F)(F)F)cn2)[C@@H]2CCC[C@H]2OC(F)F)c2[nH]ncc12 [Compound 43]

>  <EXPERIMENTAL SYSTEM>
HAP1 MTAP-deleted cell line

>  <ASSAY READOUT>
pIC50

>  <RESULT>
> 7.00

$$$$
>  <COMPOUND>
CCc1cc(NC(=O)C(=O)N(Cc2ccc(C(F)(F)F)cn2)C2CCC(C)c3ccccc32)cnc1N (centres unmarked) [Compound 10]

>  <EXPERIMENTAL SYSTEM>
HAP1 MTAP-deleted cell line

>  <ASSAY READOUT>
pIC50

>  <RESULT>
6.00 to 7.00

$$$$
>  <COMPOUND>
CC[C@H](C)CN(Cc1ccccc1C)C(=O)C(=O)Nc1cnc(N)c2cn[nH]c12 [Compound 60]

>  <EXPERIMENTAL SYSTEM>
HAP1 MTAP-deleted cell line

>  <ASSAY READOUT>
pIC50

>  <RESULT>
> 7.00

$$$$
>  <COMPOUND>
Nc1ncc(NC(=O)C(=O)N(Cc2ccc(C(F)(F)F)cn2)C2CC2)c2[nH]ncc12 [Compound 159]

>  <EXPERIMENTAL SYSTEM>
HAP1 MTAP-deleted cell line

>  <ASSAY READOUT>
pIC50

>  <RESULT>
> 7.00

$$$$
>  <COMPOUND>
NC(=O)c1cncc(NC(=O)C(=O)N(Cc2ccc(C(F)(F)F)cn2)[C@@H]2CCC[C@H]2OC(F)F)c1 [Compound 22]

>  <EXPERIMENTAL SYSTEM>
HAP1 MTAP-deleted cell line

>  <ASSAY READOUT>
pIC50

>  <RESULT>
6.00 to 7.00

$$$$
>  <COMPOUND>
CC1CCC(N(Cc2ccc(C(F)(F)F)cn2)C(=O)C(=O)Nc2cncc3cn[nH]c23)c2ccccc21 (centres unmarked) [Compound 17]

>  <EXPERIMENTAL SYSTEM>
HAP1 MTAP-deleted cell line

>  <ASSAY READOUT>
pIC50

>  <RESULT>
> 7.00

$$$$
>  <COMPOUND>
COC[C@@H](C1CC1)N(Cc1ccc(C(F)(F)F)cn1)C(=O)C(=O)Nc1ccn2ccnc2c1 [Compound 31]

>  <EXPERIMENTAL SYSTEM>
HAP1 MTAP-deleted cell line

>  <ASSAY READOUT>
pIC50

>  <RESULT>
6.00 to 7.00

$$$$
>  <COMPOUND>
Cc1cccc(CN(Cc2ccccc2)C(=O)C(=O)Nc2cnc(N)c3cn[nH]c23)c1C [Compound 130]

>  <EXPERIMENTAL SYSTEM>
HAP1 MTAP-deleted cell line

>  <ASSAY READOUT>
pIC50

>  <RESULT>
> 7.00

$$$$

Entry CC(C)CN(Cc1ccc(S(F)(F)(F)(F)F)cc1)C(=O)C(=O)Nc1cnc(N)c2cn[nH]c12 [Compound 110] — recorded pIC50 = > 7.00

Note to self: pIC50 recorded for Cc1cccnc1CN(C(=O)C(=O)Nc1cnc(N)c2cn[nH]c12)C(C)C(C)C (single isomer, unassigned) [Compound 106] was > 7.00

Memo: Nc1ncc(NC(=O)C(=O)N(Cc2ccccc2)Cc2ccc(F)cn2)c2[nH]ncc12 [Compound 68] , reported pIC50: > 7.00

Entry under test: Cc1ccccc1CN(Cc1ccc(Cl)cc1)C(=O)C(=O)Nc1cnc(N)c2cn[nH]c12 [Compound 109] . Its pIC50 was > 7.00

Form field pIC50, entry Nc1ncc(NC(=O)C(=O)N(CCC(F)(F)F)Cc2ccccc2)c2[nH]ncc12 [Compound 102] : 6.00 to 7.00

pIC50 reading for Nc1ncc(NC(=O)C(=O)N(Cc2ccc(C(F)(F)F)cn2)[C@@H]2CCC[C@H]2OC(F)F)cc1C1CC1 [Compound 4] : 6.00 to 7.00

Ref: patent US20250136594A1
